Target: PDK1(h) (Homo sapiens)
Sequence (O15530 1-556): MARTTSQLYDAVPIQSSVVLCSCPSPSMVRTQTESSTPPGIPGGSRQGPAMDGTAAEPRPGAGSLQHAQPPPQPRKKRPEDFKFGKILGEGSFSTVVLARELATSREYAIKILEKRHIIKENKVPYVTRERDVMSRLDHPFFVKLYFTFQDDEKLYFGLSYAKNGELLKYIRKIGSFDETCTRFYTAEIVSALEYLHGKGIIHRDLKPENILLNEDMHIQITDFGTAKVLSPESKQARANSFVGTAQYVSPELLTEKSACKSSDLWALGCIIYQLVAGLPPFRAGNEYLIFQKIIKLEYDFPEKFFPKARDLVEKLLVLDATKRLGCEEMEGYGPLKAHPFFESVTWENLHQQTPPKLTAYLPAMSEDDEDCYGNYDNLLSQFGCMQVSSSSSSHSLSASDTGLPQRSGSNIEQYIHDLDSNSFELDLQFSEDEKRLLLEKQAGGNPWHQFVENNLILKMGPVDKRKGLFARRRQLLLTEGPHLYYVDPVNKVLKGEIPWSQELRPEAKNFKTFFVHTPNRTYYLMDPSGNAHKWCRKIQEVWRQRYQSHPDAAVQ
Test: Kinase Profiling Assay
Assay type: biochemical
Settings: 100 μM
measure name: % activity (%)
# number only, unit % dropped from output

                     sequence_content  measure_name  result_number
0   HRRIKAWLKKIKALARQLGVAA [MMI-0500]    % activity            178
1    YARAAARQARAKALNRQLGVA [MMI-0200]    % activity            143
2  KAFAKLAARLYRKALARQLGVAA [MMI-0400]    % activity            159

Turning to the following sequence.
Input line: What measured % activity goes with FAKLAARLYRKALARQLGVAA [MMI-0300] ?
Output line: 135
